target: MDR1 (ABCB1) (Homo sapiens); experiment: Activity at MDR1 (unknown origin) expressed in MDCK cells assessed as efflux ratio of permeability across basolateral to apical side over apical to basolateral side; format: ADME, cell-based
efflux ratio values, listed per item
OBSERVABLE: efflux ratio

- MOLECULE: "C=C[C@H]1C[N@@]2CC[C@H]1C[C@@H]2[C@@H](O)c1ccnc2ccc(OC)cc12"
  OBSERVED_VALUE: 7.81
- MOLECULE: "C[C@H]1[C@@H](O)O[C@@H]2O[C@@]3(C)CC[C@H]4[C@H](C)CC[C@@H]1[C@@]24OO3"
  OBSERVED_VALUE: 0.89
- MOLECULE: "COCCc1ccc(OCC(O)CNC(C)C)cc1 (stereo not drawn)"
  OBSERVED_VALUE: 1.07

* * *

experiment: Permeability across basolateral to apical side in MDCK cells after 90 mins by LC-MS/MS analysis; format: ADME, cell-based, Canis lupus familiaris; conditions: dog

- COMPOUND: "COCCc1ccc(OCC(O)CNC(C)C)cc1 (stereo not given)"
  UNITS_OF_MEASURE: "×10⁻⁶ cm/s"
  RESULT_QUALIFIER: "="
  Papp B→A at 1.5 h: 18.5
- COMPOUND: "C[C@H]1[C@@H](Oc2ccc(CN3CCN(c4ccc(F)cc4)CC3)cc2)O[C@@H]2O[C@@]3(C)CC[C@H]4[C@H](C)CC[C@@H]1[C@@]24OO3"
  UNITS_OF_MEASURE: "×10⁻⁶ cm/s"
  RESULT_QUALIFIER: "<"
  Papp B→A at 1.5 h: 0.83
- COMPOUND: "C=C[C@H]1C[N@@]2CC[C@H]1C[C@@H]2[C@@H](O)c1ccnc2ccc(OC)cc12"
  UNITS_OF_MEASURE: "×10⁻⁶ cm/s"
  RESULT_QUALIFIER: "="
  Papp B→A at 1.5 h: 23.4
- COMPOUND: "C[C@H]1[C@@H](Oc2ccc(/C=C/C(=O)N3CCN(c4cccc(C(F)(F)F)c4)CC3)cc2)O[C@@H]2O[C@@]3(C)CC[C@H]4[C@H](C)CC[C@@H]1[C@@]24OO3"
  UNITS_OF_MEASURE: "×10⁻⁶ cm/s"
  RESULT_QUALIFIER: "<"
  Papp B→A at 1.5 h: 0.93
- COMPOUND: "C[C@H]1[C@@H](O)O[C@@H]2O[C@@]3(C)CC[C@H]4[C@H](C)CC[C@@H]1[C@@]24OO3"
  UNITS_OF_MEASURE: "×10⁻⁶ cm/s"
  RESULT_QUALIFIER: "="
  Papp B→A at 1.5 h: 25.1

* * *

target: MDR1 (ABCB1) (Homo sapiens, UniProt P08183); experiment: Activity at MDR1 (unknown origin) expressed in MDCK cells assessed as permeability across basolateral to apical after 90 mins by LC-MS/MS analysis; format: ADME, cell-based
Sequence (P08183 whole entry): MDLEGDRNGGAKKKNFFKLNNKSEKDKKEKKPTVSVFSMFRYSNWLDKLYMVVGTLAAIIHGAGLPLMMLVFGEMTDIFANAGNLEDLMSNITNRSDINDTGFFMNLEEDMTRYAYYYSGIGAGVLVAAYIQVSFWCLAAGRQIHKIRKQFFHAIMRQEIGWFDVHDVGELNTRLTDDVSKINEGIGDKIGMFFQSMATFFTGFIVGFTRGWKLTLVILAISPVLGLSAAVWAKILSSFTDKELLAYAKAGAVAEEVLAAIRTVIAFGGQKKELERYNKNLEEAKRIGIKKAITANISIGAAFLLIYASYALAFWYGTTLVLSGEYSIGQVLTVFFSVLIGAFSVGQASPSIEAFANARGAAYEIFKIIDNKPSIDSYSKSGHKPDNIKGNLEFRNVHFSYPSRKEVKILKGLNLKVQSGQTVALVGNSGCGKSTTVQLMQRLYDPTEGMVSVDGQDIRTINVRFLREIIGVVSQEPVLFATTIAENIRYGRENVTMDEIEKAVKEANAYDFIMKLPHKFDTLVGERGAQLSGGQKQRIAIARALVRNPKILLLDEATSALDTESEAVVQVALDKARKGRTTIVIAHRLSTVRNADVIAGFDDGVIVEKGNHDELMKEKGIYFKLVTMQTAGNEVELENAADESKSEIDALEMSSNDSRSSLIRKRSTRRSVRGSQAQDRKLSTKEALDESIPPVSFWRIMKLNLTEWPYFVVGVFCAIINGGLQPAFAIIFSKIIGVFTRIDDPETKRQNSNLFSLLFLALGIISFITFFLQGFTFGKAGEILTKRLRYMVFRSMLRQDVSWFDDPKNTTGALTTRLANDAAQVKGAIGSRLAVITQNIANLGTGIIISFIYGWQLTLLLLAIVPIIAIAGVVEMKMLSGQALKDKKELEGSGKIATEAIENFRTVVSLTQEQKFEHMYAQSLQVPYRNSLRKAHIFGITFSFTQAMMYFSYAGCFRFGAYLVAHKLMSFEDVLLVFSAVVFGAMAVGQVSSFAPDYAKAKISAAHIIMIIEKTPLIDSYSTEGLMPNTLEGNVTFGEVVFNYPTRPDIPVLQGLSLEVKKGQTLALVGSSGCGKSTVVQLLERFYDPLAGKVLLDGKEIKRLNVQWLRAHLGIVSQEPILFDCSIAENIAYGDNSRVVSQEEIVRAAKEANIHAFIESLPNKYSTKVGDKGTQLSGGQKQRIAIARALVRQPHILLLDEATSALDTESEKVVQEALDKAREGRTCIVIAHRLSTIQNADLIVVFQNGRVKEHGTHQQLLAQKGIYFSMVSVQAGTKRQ

- COMPOUND: "C[C@H]1[C@@H](O)O[C@@H]2O[C@@]3(C)CC[C@H]4[C@H](C)CC[C@@H]1[C@@]24OO3"
  RESULT_QUALIFIER: "="
  Papp B→A at 1.5 h (×10⁻⁶ cm/s): 24.9
- COMPOUND: "C=C[C@H]1C[N@@]2CC[C@H]1C[C@@H]2[C@@H](O)c1ccnc2ccc(OC)cc12"
  RESULT_QUALIFIER: "="
  Papp B→A at 1.5 h (×10⁻⁶ cm/s): 34.1
- COMPOUND: "COCCc1ccc(OCC(O)CNC(C)C)cc1 (stereo not given)"
  RESULT_QUALIFIER: "="
  Papp B→A at 1.5 h (×10⁻⁶ cm/s): 23.7
- COMPOUND: "C[C@H]1[C@@H](Oc2ccc(/C=C/C(=O)N3CCN(c4cccc(C(F)(F)F)c4)CC3)cc2)O[C@@H]2O[C@@]3(C)CC[C@H]4[C@H](C)CC[C@@H]1[C@@]24OO3"
  RESULT_QUALIFIER: "<"
  Papp B→A at 1.5 h (×10⁻⁶ cm/s): 1
- COMPOUND: "C[C@H]1[C@@H](Oc2ccc(CN3CCN(c4ccc(F)cc4)CC3)cc2)O[C@@H]2O[C@@]3(C)CC[C@H]4[C@H](C)CC[C@@H]1[C@@]24OO3"
  RESULT_QUALIFIER: "<"
  Papp B→A at 1.5 h (×10⁻⁶ cm/s): 0.85

* * *

Quick list: Papp A→B at 1.5 h per entry.
target: MDR1 (ABCB1) (Homo sapiens, UniProt P08183); assay: Activity at MDR1 (unknown origin) expressed in MDCK cells assessed as permeability across apical to basolateral after 90 mins by LC-MS/MS analysis; format: ADME, cell-based

- MOLECULE: "C[C@H]1[C@@H](Oc2ccc(/C=C/C(=O)N3CCN(c4cccc(C(F)(F)F)c4)CC3)cc2)O[C@@H]2O[C@@]3(C)CC[C@H]4[C@H](C)CC[C@@H]1[C@@]24OO3"
  RESULT_QUALIFIER: "<"
  Papp A→B at 1.5 h, ×10⁻⁶ cm/s: 1.83
- MOLECULE: "C=C[C@H]1C[N@@]2CC[C@H]1C[C@@H]2[C@@H](O)c1ccnc2ccc(OC)cc12"
  RESULT_QUALIFIER: "="
  Papp A→B at 1.5 h, ×10⁻⁶ cm/s: 4.37
- MOLECULE: "C[C@H]1[C@@H](O)O[C@@H]2O[C@@]3(C)CC[C@H]4[C@H](C)CC[C@@H]1[C@@]24OO3"
  RESULT_QUALIFIER: "="
  Papp A→B at 1.5 h, ×10⁻⁶ cm/s: 28
- MOLECULE: "COCCc1ccc(OCC(O)CNC(C)C)cc1 (stereo not given)"
  RESULT_QUALIFIER: "="
  Papp A→B at 1.5 h, ×10⁻⁶ cm/s: 22.2
- MOLECULE: "C[C@H]1[C@@H](Oc2ccc(CN3CCN(c4ccc(F)cc4)CC3)cc2)O[C@@H]2O[C@@]3(C)CC[C@H]4[C@H](C)CC[C@@H]1[C@@]24OO3"
  RESULT_QUALIFIER: "<"
  Papp A→B at 1.5 h, ×10⁻⁶ cm/s: 1.34

* * *

experiment: Permeability across apical to basolateral side in MDCK cells after 90 mins by LC-MS/MS analysis; type: ADME, cell-based, Canis lupus familiaris; conditions: dog

- MOLECULE: "C[C@H]1[C@@H](O)O[C@@H]2O[C@@]3(C)CC[C@H]4[C@H](C)CC[C@@H]1[C@@]24OO3 [ARTENIMOL]"
  Papp A→B at 1.5 h: "31.4 ×10⁻⁶ cm/s"
- MOLECULE: "COCCc1ccc(OCC(O)CNC(C)C)cc1 (stereo not given) [METOPROLOL]"
  Papp A→B at 1.5 h: "24.3 ×10⁻⁶ cm/s"
- MOLECULE: "C=C[C@H]1C[N@@]2CC[C@H]1C[C@@H]2[C@@H](O)c1ccnc2ccc(OC)cc12 [QUINIDINE]"
  Papp A→B at 1.5 h: "9.98 ×10⁻⁶ cm/s"
- MOLECULE: "C[C@H]1[C@@H](Oc2ccc(CN3CCN(c4ccc(F)cc4)CC3)cc2)O[C@@H]2O[C@@]3(C)CC[C@H]4[C@H](C)CC[C@@H]1[C@@]24OO3"
  Papp A→B at 1.5 h: "< 1.33 ×10⁻⁶ cm/s"
- MOLECULE: "C[C@H]1[C@@H](Oc2ccc(/C=C/C(=O)N3CCN(c4cccc(C(F)(F)F)c4)CC3)cc2)O[C@@H]2O[C@@]3(C)CC[C@H]4[C@H](C)CC[C@@H]1[C@@]24OO3"
  Papp A→B at 1.5 h: "< 1.82 ×10⁻⁶ cm/s"

Where do the numbers come from? From ChEMBL document CHEMBL3751676.
